- procedure summary: thermal stability: exotherm on heating
- Format: physicochemical
- reported conditions: 350° C., over 8 hours
quantity name: exotherm of the product

molecule="CCc1cc(Cc2cc(CC)c(N)c(CC)c2Cl)c(Cl)c(CC)c1N [Amine V]" experimental_value="No exotherm"
molecule="CCc1c(N)c(C)cc(Cc2cc(C)c(N)c(CC)c2Cl)c1Cl [Example 2]" experimental_value="No exotherm"
molecule="CCC(C)c1cc(Cc2cc(C(C)CC)c(N)c(C(C)CC)c2Cl)c(Cl)c(C(C)CC)c1N (centres unmarked) [Amine IX]" experimental_value="No exotherm"
molecule="CCc1cc(Cc2cc(CC)c(N)c(C)c2Cl)c(Cl)c(C)c1N [Amine VI]" experimental_value="No exotherm"

// moving on: another record for exotherm of the product
Input line: Could you tell me which exotherm of the product is on file for Cc1c(N)c(C(C)C)cc(Cc2cc(C(C)C)c(N)c(C)c2Cl)c1Cl [Amine VIII] ?
Output line: No exotherm
